Biological target: Pin1_72/14-3-3γ complex (Homo sapiens)
Assay: biochemical
REPORTED_METRIC: EC50 (µM)
Answers are plain numbers, in µM.

Can you give me EC50 for all of these, one by one?
1. O=Cc1ccc(-n2ccnc2-c2ccc(F)cc2F)cc1Br
2. O=Cc1ccc(-n2ccnc2-c2ccccc2)cc1Br
3. O=Cc1ccc(-n2ccnc2-c2cc(Br)ccc2F)cc1Br

Result:
79
101
118

* * *

Target: 14-3-3/ERα complex (Homo sapiens, UniProt P61981)
Sequence (P61981 whole entry, one chain of several): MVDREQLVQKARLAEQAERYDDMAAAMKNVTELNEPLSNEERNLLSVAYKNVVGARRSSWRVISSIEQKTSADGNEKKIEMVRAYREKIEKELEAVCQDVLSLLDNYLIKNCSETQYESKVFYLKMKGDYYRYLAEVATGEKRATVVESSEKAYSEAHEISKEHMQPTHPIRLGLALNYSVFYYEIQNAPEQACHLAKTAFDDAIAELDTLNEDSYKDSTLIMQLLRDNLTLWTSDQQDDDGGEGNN
Assay: Selectivity panel, FA protein titration
Type: binding
Conditions: 100 μM compound; C-terminal phosphorylation motif
REPORTED_METRIC: SF / complex stabilization

The molecule listed as C=CC(C)(C)OC[C@H]1O[C@H](O[C@@H]2C3=C([C@H](C)COC(C)=O)C[C@H](O)[C@]3(C)/C=C3/[C@@H](COC)CC[C@H]3[C@@H](C)[C@H]2O)[C@H](O)[C@@H](OC(C)=O)[C@@H]1O [FCA, fusicoccin A, reference compound] has a reported SF / complex stabilization of 160 fold

* * *

Biological target: Pin1_72/14-3-3γ complex (Homo sapiens, UniProt P61981)
Sequence (P61981 whole entry, other chains not shown): as the sequence (P61981 whole entry, one chain of several) above
Experiment: FA protein titration of 14-3-3γ in presence of 100 μM compound
REPORTED_METRIC: Kd (nM)
Numbers only, in nM.

The compound listed as O=Cc1ccc(-n2ccnc2-c2ccccc2)cc1Br has a reported Kd of 2160
